B1: tRNA (parent)
chain: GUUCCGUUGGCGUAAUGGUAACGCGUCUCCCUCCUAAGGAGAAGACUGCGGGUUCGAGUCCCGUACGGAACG

# Variants of: B1
# protocol-text: yeast fitness relative to wild type (ratio to wild type); higher = fitter; tRNA-Arg(CCU), competitive growth, 37 C, YPD
This sample holds only a part of the variants without activity.
observation-type: yeast fitness
Answer with a bare number; do not write a unit.

For U19A C62U , what is its reported yeast fitness?
0.931

Subsequent entry: A20U U32C A43G
0.659

Subsequent entry: U3A G56C
0.716

Subsequent entry: C5U C11U G67C
0.659

Subsequent entry: C27G C30G G56U
0.543

Subsequent entry: A14U U59A G67A
0.578

Subsequent entry: C27A C61A
0.67

Subsequent entry: G6C U8C G25A
0.581

Subsequent entry: A21C A57C
0.548

Subsequent entry: C27G U54C C62U
0.552

Subsequent entry: G9A C31U U53A
0.638

Subsequent entry: U2C U47A A70G
1.15

Subsequent entry: C31U C55G A70C
0.535

Subsequent entry: C5U A37C C60U G67A
0.558

Subsequent entry: G44A A45U
0.885

Subsequent entry: G10A C24A A45C A57U
0.63

Subsequent entry: C31A A37G A65U
0.629

Subsequent entry: G41C A57G
0.883

Subsequent entry: C31U G48A C61A
0.532

Subsequent entry: G6C C34U C66U A70U
0.639
